Values from PubChem BioAssay (NCI)

experiment description: NCI Yeast Anticancer Drug Screen. Data for the cln2 rad14 strain (AID 165);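 also: 0% = growth equal to vehicle treated cultures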
cond: S. cerevisiae cln2 rad14 strain, at 50.0 µM
The panel holds about 79,000 compounds, 15% with a hit somewhere; the sample as a whole holds those more often. Active and inactive are the calls of the source. Rule as the data show it: active = growth inhibition above about 70%; inactive = the rest.
Outcomes you can answer with include only these: 1.0 = active, 0.0 = inactive

[in] Query: recorded result category for CCCCC(C)C(=O)CC(SCC)c1ccc(Cl)c(Cl)c1 (stereo not drawn) in this test
[out] 0.0

[in] Query: recorded result category for O=C(O)C(Br)C(Br)C(=O)Nc1ccc(F)cc1 (stereo not drawn) in this test
[out] 1.0

[in] Query: recorded result category for `CC1(C)C=Cc2c(ccc3[nH]c4occc4c(=O)c23)O1` in this test
[out] 0.0

====

experiment description: NCI Yeast Anticancer Drug Screen. Data for the cln2 rad14 strain (AID 165);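 also: 0% = growth equal to vehicle treated cultures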
cond: S. cerevisiae cln2 rad14 strain, at 50.0 µM, stronger effect = higher value
Compounds without any hit were thinned out: in the full panel of roughly 79,000, 15% have a hit. Active and inactive are the calls of the source. Rule as the data show it: active = growth inhibition above about 70%; inactive = the rest.
reported endpoint: growth inhibition

[in] Data request, read-out growth inhibition, for `C1CCc2nc3c(nc2C1)CCCC3`
[out] -9.65% (inactive)

[in] Data request, read-out growth inhibition, for `Cc1ncc(CSC(=N)N)n1Cc1ccccc1`
[out] -17.6% (inactive)

[in] Data request, read-out growth inhibition, for `O=C1/C(=C/c2ccc(Cl)c(Cl)c2)CCC/C1=C\c1ccc(Cl)c(Cl)c1`
[out] 2.95% (inactive)

[in] Data request, read-out growth inhibition, for `CC(=O)c1cc(C(C)=O)c(CC(=O)C(=O)Nc2cccc(C)c2C)nc1CC(=O)C(=O)Nc1cccc(C)c1C`
[out] -19.2% (inactive)

[in] Data request, read-out growth inhibition, for OCC(OC/C=C/CCl)c1ccc(Cl)cc1 (configuration not stated)
[out] -0.15% (inactive)

[in] Data request, read-out growth inhibition, for `CC(C)(Oc1ccc(C(=O)c2ccc(Cl)cc2)cc1Cl)C(=O)N1CCN(CCO)CC1`
[out] 12.3% (inactive)

[in] Data request, read-out growth inhibition, for `CCOc1cc[n+]([O-])cc1C`
[out] -8.2% (inactive)

[in] Data request, read-out growth inhibition, for `Cn1cc(-n2[nH]c(=O)n(-c3ccccc3)c2=O)c(=O)n(C)c1=O`
[out] -21.3% (inactive)

[in] Data request, read-out growth inhibition, for COc1ccc(CC(C)C(C)Cc2ccc(OC)c(OC)c2)cc1OC (configuration not stated)
[out] -4.75% (inactive)

[in] Data request, read-out growth inhibition, for `O=C(OCc1ccccc1CN1CCCC1)c1cccc(Cl)c1`
[out] -7.2% (inactive)

[in] Data request, read-out growth inhibition, for `CCOC(=O)Cc1nc2sc3c(c2c(=O)[nH]1)CCCC3`
[out] -0.9% (inactive)

[in] Data request, read-out growth inhibition, for `CC(C)n1ncc2c(N)ncnc21`
[out] -26.8% (inactive)

====

Answer each item with its documented growth inhibition.
experiment description: NCI Yeast Anticancer Drug Screen. Data for the bub3 strain (AID 167)
cond: S. cerevisiae bub3 mutant strain, at 50.0 µM, stronger effect = higher value
The panel holds about 79,000 compounds, 15% with a hit somewhere; the sample as a whole holds those more often.
# output: bare number, implied unit %

[in] Data request, read-out growth inhibition, for CC(=O)OCC1OC(n2nc(/C=C/c3ccccc3)c(=O)n(-c3ccccc3)c2=S)C(OC(C)=O)C(OC(C)=O)C1OC(C)=O (stereo not drawn)
[out] -0.45

[in] Data request, read-out growth inhibition, for `CCCCCCCCN(C)/N=N/c1nc[nH]c1C(N)=O`
[out] 17.8

[in] Data request, read-out growth inhibition, for `CCOC(=O)c1sc(SC)nc1NC(=O)c1ccc(Cl)cc1`
[out] -2.55

[in] Data request, read-out growth inhibition, for `O=C(O)c1cccc(F)c1C(=O)c1ccc2ccccc2c1`
[out] -22.1

[in] Data request, read-out growth inhibition, for CCCC(=O)OCC(O)CO (stereo not drawn)
[out] 4.1

[in] Data request, read-out growth inhibition, for `O=[N+]([O-])c1ccc(/C=C/c2ccc([N+](=O)[O-])cc2S(=O)(=O)O)c(S(=O)(=O)O)c1`
[out] 32.9

[in] Data request, read-out growth inhibition, for `Cc1onc(-c2ccccc2)c1NC(=O)OCc1ccc(-c2cc(C(F)(F)F)cc(C(F)(F)F)c2)o1`
[out] 4.4

[in] Data request, read-out growth inhibition, for `CC(=O)/C(C)=C\C=C(\C)C(C)=O`
[out] -0.45
